# SUBJECT_OF_TEST: Enoyl-[acyl-carrier-protein] reductase [NADH] (Mycobacterium tuberculosis) (UniProt P9WGR1)
# Sequence (P9WGR1 whole entry): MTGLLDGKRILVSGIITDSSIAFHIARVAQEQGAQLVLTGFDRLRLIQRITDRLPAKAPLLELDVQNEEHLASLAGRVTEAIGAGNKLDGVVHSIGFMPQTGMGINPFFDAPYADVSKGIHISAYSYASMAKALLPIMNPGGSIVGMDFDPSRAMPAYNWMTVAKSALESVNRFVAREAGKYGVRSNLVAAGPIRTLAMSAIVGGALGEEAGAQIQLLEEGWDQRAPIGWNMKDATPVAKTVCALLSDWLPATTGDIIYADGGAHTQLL
# ASSAY_NOTES: Inhibition of Mycobacterium tuberculosis InhA expressed in Escherichia coli BL21 using trans-2-dodecenoyl-Coenzyme A as substrate at 50 uM by spectrophotometry
READOUT: inhibition (%)
Answer format: numeric, % implied, no suffix.

- CHEMICAL_STRUCTURE: "COc1cccc(Cn2cc(C(=O)Cc3ccccc3)nn2)c1"
  inhibition (%): 10

Query: Given the entry CCCCCCCCn1cc(CCc2ccccc2)nn1 , report its measured inhibition.
Result: 46

Query: # inhibition lookup, item Cc1cc(C)cc(Cn2cc(CCc3ccccc3)nn2)c1
Result: 11

Query: I'd like to know its inhibition. The compound in question is c1ccc(CCc2cn(Cc3ccccc3)nn2)cc1
Result: 15

Query: So what's the measured inhibition for this one? CCCCCCCCCCCCn1cc(CCc2ccccc2)nn1
Result: 40

Query: Item CCCCCCCCCn1cc(CCc2ccccc2)nn1 has what recorded inhibition?
Result: 58

Query: inhibition lookup needed for O=C(Cc1ccccc1)c1cn(Cc2ccccc2)nn1 , thanks.
Result: 13

Query: Can you look up the measured inhibition of O=C(Cc1ccccc1)c1cn(CC2CCCCC2)nn1 for me?
Result: 12

Query: I have this compound here, CCCCCCCCn1cc(C(=O)Cc2ccccc2)nn1 , and I need its recorded inhibition.
Result: 25

Query: // returns reported inhibition for input Cc1cc(C)cc(Cn2cc(C(=O)Cc3ccccc3)nn2)c1
Result: 10
